- Test Target: T1, VEGFR-2-Fc (UniProt P35968 20-322)
- T1 construct: domain: first 3 Ig domains; conditioned supernatant of 293T cells; also called VEGFR-2-Fc fusion protein; not shown: Fc fragment of the pIg vector
- T1 sequence (P35968 20-322): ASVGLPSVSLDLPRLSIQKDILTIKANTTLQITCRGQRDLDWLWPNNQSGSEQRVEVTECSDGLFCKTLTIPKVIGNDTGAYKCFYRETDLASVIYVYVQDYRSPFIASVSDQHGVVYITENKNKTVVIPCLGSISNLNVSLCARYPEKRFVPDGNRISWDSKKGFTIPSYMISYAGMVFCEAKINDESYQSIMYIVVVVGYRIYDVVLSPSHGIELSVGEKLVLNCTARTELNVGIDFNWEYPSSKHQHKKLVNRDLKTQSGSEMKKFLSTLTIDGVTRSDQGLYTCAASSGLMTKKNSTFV
- Procedure Summary: receptor-Fc IP
Measured Property: binding result

Please review the following examples before continuing.
Binder	binding result
64-2 (ligand) GQNHHEVVKFMDVYQRSYCHPREVCIDVGKEFGVATNTFFKPSCVPLMRCGGCCNDEGLECMNTSTSYLSKTLFEIKPHQGQHIGEMSFLQHNKCECRPKKD	no binding
61-16 (ligand) GQNHHEVVKFMDVYQRSYCHPREVCIDVGKEYPDEIEYIFKPSCVPLMRCGGCCNSEGLQCMNTSTSYLSKTLFEITVPLSQGPKPVTISFANHTSCRCMSKLD	no binding
72-3 (ligand) GQNHHEVVKSIDNEWRKTQCMPREVCIDVGKEFGVATNTFFKPPCVSVYRCGGCCNSEGLQCVPTEESNITMQIMRIKPHQGQHIGEMSFLQHNKCECRPKKD	no binding
84-11 (ligand, clone entry) AHYNTEILKFMDVYQRSYCHPIETLVDIFQEFGVATNTFFKPSCVPLMRCGGCCNSEGLQCVPTEESNITMQIMRITVPLSQGPKPVTISFLQHNKCECRPKKDL	binds
72-4 (ligand) GQNHHEVVKSIDNEWRKTQCMPREVCIDVGKEFGVATNTFFKPPCVSVYRCGGCCNSEGLQCMNTSTSYLSKTLFEIKPHQGQHIGEMSFLQHNKCECRPKKD	binds

Fill in binding result for each of the 8 binders listed.
1. 22-7 (ligand) AHYNTEILKSIDNEWRKTQCMPREVCIDVGKEFGVATNTFFKPPCVSVYRCGGCCNSEGLQCVPTEESNITMQIMRIKPHQGQHIGEMSFANHTSCRCMSKLD
2. 61-9 (ligand) GQNHHEVVKFMDVYQRSYCHPREVCIDVGKEYPDEIEYIFKPSCVPLMRCGGCCNDEGLECVPTEESNITMQIMRITVPLSQGPKPVTISFLQHNKCECRPKKD
3. 32-5 (ligand) GQNHHEVVKSIDNEWRKTQCMPIETLVDIFQEFGVATNTFFKPPCVSVYRCGGCCNDEGLECVPTEESNITMQIMRIKPHQGQHIGEMSFANHTSCRCMSKLD
4. 14-1 (ligand) GQNHHEVVKFMDVYQRSYCHPIETLVDIFQEFGVATNTFFKPSCVPLMRCGGCCNDEGLECVPTEESNITMQIMRIKPHQGQHIGEMSFLQHNKCECRPKKD
5. 63-13 (ligand) GQNHHEVVKFMDVYQRSYCHPREVCIDVGKEYPDEIEYIFKPPCVSVYRCGGCCNDEGLECVPTEESNITMQIMRITVPLSQGPKPVTISFANHTSCRCMSKLD
6. 63-9 (ligand) GQNHHEVVKFMDVYQRSYCHPREVCIDVGKEYPDEIEYIFKPPCVSVYRCGGCCNDEGLECVPTEESNITMQIMRITVPLSQGPKPVTISFLQHNKCECRPKKD
7. 74-4 (ligand) GQNHHEVVKSIDNEWRKTQCMPREVCIDVGKEFGVATNTFFKPSCVPLMRCGGCCNSEGLQCMNTSTSYLSKTLFEIKPHQGQHIGEMSFLQHNKCECRPKKD
8. 74-3 (ligand) GQNHHEVVKSIDNEWRKTQCMPREVCIDVGKEFGVATNTFFKPSCVPLMRCGGCCNSEGLQCVPTEESNITMQIMRIKPHQGQHIGEMSFLQHNKCECRPKKD

1. no binding
2. no binding
3. no binding
4. no binding
5. no binding
6. no binding
7. no binding
8. no binding

// for each binder below, give its binding result
1. 22-8 (ligand) AHYNTEILKSIDNEWRKTQCMPREVCIDVGKEFGVATNTFFKPPCVSVYRCGGCCNSEGLQCMNTSTSYLSKTLFEIKPHQGQHIGEMSFANHTSCRCMSKLD
2. 73-1 (ligand) GQNHHEVVKSIDNEWRKTQCMPREVCIDVGKEYPDEIEYIFKPPCVSVYRCGGCCNDEGLECVPTEESNITMQIMRIKPHQGQHIGEMSFLQHNKCECRPKKD
3. 44-5 (ligand) AHYNTEILKFMDVYQRSYCHPREVCIDVGKEFGVATNTFFKPSCVPLMRCGGCCNDEGLECVPTEESNITMQIMRIKPHQGQHIGEMSFANHTSCRCMSKLD

1. binds
2. no binding
3. no binding

The reported measurements were obtained from patent US20080058263A1.
